Readings of shrunken log2 fold change for the listed sequences
System: Escherichia coli TOP10
Test: shrunken log2 fold change of peptide-encoding DNA abundance (4.5 h post-induction vs induction); higher = less antimicrobial activity (less host growth inhibition)
Conditions: time post-induction: 4.5 h; library: site-saturation at positions 5, 18, 19, 20

ENTRY SEQUENCE	RECORDED METRIC	OBSERVED MEASUREMENT
RRIRDRPPRLPRPRPRPIGNPRP	shrunken log2 fold change	0.279
RRIRCRPPRLPRPRPRPTRHPRP	shrunken log2 fold change	0.161
RRIRIRPPRLPRPRPRPWIVPRP	shrunken log2 fold change	-0.157

Task item: Please report the recorded shrunken log2 fold change for `RRIRKRPPRLPRPRPRPMVNPRP` .
Reply: 1.55

Task item: Another sequence to look at: `RRIRHRPPRLPRPRPRPQHMPRP`
Reply: -1.2

Task item: Another sequence to look at: `RRIRQRPPRLPRPRPRPLRWPRP`
Reply: 0.585

Task item: Another sequence to look at: `RRIRKRPPRLPRPRPRPPKKPRP`
Reply: 0.0439

Task item: Another sequence to look at: `RRIRCRPPRLPRPRPRPTLCPRP`
Reply: -0.0107

Task item: Another sequence to look at: `RRIRFRPPRLPRPRPRPVCAPRP`
Reply: 0.198

Task item: Another sequence to look at: `RRIRNRPPRLPRPRPRPGSDPRP`
Reply: -0.0348

Task item: Another sequence to look at: `RRIRCRPPRLPRPRPRPEHVPRP`
Reply: 0.229

Task item: Another sequence to look at: `RRIRNRPPRLPRPRPRPYKMPRP`
Reply: -0.0115

Task item: Another sequence to look at: `RRIRHRPPRLPRPRPRPPPSPRP`
Reply: 0.87

Task item: Another sequence to look at: `RRIRWRPPRLPRPRPRPQEQPRP`
Reply: 0.0647

Task item: Another sequence to look at: `RRIRYRPPRLPRPRPRPPNNPRP`
Reply: -0.708

* * *

Tested on: Escherichia coli TOP10
Experiment: shrunken log2 fold change of peptide-encoding DNA abundance (4.5 h post-induction vs induction); higher = less antimicrobial activity (less host growth inhibition)
Conditions: time post-induction: 4.5 h; library: site-saturation at positions 5, 18, 19, 20
// classify(record): look up shrunken log2 fold change in ranges bin 0 (below -0.2), bin 1 (-0.2 to below 0.1), bin 2 (0.1 or more)

ENTRY SEQUENCE	TEST TARGET	QUALITATIVE LABEL
RRIRARPPRLPRPRPRPPCKPRP	Escherichia coli TOP10	bin 2

Task item: Hey, which category is `RRIRGRPPRLPRPRPRPYMLPRP` in, do you know?
Reply: bin 1

Task item: Another sequence to look at: `RRIRIRPPRLPRPRPRPGPQPRP`
Reply: bin 1

Task item: Another sequence to look at: `RRIRDRPPRLPRPRPRPPDNPRP`
Reply: bin 0

Task item: Another sequence to look at: `RRIRRRPPRLPRPRPRPWKTPRP`
Reply: bin 1

Task item: Another sequence to look at: `RRIRRRPPRLPRPRPRPRGDPRP`
Reply: bin 2

* * *

Tested on: Escherichia coli TOP10
Test: shrunken log2 fold change of peptide-encoding DNA abundance (4.5 h post-induction vs induction); higher = less antimicrobial activity (less host growth inhibition)
Details: time post-induction: 4.5 h; library: site-saturation at positions 5, 18, 19, 20
Readings of shrunken log2 fold change for the listed sequences
I only need the number, thanks.

ENTRY SEQUENCE	TEST TARGET	shrunken log2 fold change
RRIRFRPPRLPRPRPRPSKQPRP	Escherichia coli TOP10	-0.101

Task item: Please report the recorded shrunken log2 fold change for `RRIRSRPPRLPRPRPRPRYDPRP` .
Reply: -0.444

Task item: Another sequence to look at: `RRIRWRPPRLPRPRPRPQFHPRP`
Reply: -0.275

* * *

Test system: Escherichia coli TOP10
Experiment: shrunken log2 fold change of peptide-encoding DNA abundance (4.5 h post-induction vs induction); higher = less antimicrobial activity (less host growth inhibition)
Conditions: time post-induction: 4.5 h; library: site-saturation at positions 5, 18, 19, 20
Readings of shrunken log2 fold change for the listed sequences
I only need the number, thanks.

Here is how some sequences turned out for shrunken log2 fold change.
ENTRY SEQUENCE	RECORDED METRIC	OBSERVED MEASUREMENT
RRIRFRPPRLPRPRPRPRKSPRP	shrunken log2 fold change	0.123
RRIRNRPPRLPRPRPRPWPAPRP	shrunken log2 fold change	0.0494
RRIRNRPPRLPRPRPRPMLSPRP	shrunken log2 fold change	0.081
RRIRRRPPRLPRPRPRPGFGPRP	shrunken log2 fold change	0.497
RRIRPRPPRLPRPRPRPSRIPRP	shrunken log2 fold change	-0.0841
RRIRGRPPRLPRPRPRPERHPRP	shrunken log2 fold change	0.834

Task item: Please state recorded shrunken log2 fold change (tested on Escherichia coli TOP10) of `RRIRCRPPRLPRPRPRPIRVPRP`
Reply: 0.161

Task item: Another sequence to look at: `RRIRTRPPRLPRPRPRPKVSPRP`
Reply: -0.0491

Task item: Another sequence to look at: `RRIRERPPRLPRPRPRPEFHPRP`
Reply: -0.207

Task item: Another sequence to look at: `RRIRSRPPRLPRPRPRPWPRPRP`
Reply: 0.646

Task item: Another sequence to look at: `RRIRPRPPRLPRPRPRPCDYPRP`
Reply: 0.218

Task item: Another sequence to look at: `RRIRKRPPRLPRPRPRPRWRPRP`
Reply: 0.658

Task item: Another sequence to look at: `RRIRFRPPRLPRPRPRPMYCPRP`
Reply: -0.541

Task item: Another sequence to look at: `RRIRGRPPRLPRPRPRPQIIPRP`
Reply: 0.203

Task item: Another sequence to look at: `RRIRKRPPRLPRPRPRPSWMPRP`
Reply: 0.93

Task item: Another sequence to look at: `RRIRTRPPRLPRPRPRPMVSPRP`
Reply: -0.0669

* * *

Tested on: Escherichia coli TOP10
Test: shrunken log2 fold change of peptide-encoding DNA abundance (4.5 h post-induction vs induction); higher = less antimicrobial activity (less host growth inhibition)
Settings: time post-induction: 4.5 h; library: site-saturation at positions 5, 18, 19, 20
Readings of shrunken log2 fold change for the listed sequences

Here is how some sequences turned out for shrunken log2 fold change.
ENTRY SEQUENCE	shrunken log2 fold change
RRIRKRPPRLPRPRPRPFEYPRP	-0.00133
RRIRCRPPRLPRPRPRPGKIPRP	-0.399
RRIRDRPPRLPRPRPRPDNMPRP	0.0341
RRIRVRPPRLPRPRPRPYATPRP	-0.124
RRIRRRPPRLPRPRPRPFKGPRP	0.0185

Let us move to another entry and its shrunken log2 fold change.
Task item: Please state recorded shrunken log2 fold change (tested on Escherichia coli TOP10) of `RRIRARPPRLPRPRPRPVEYPRP`
Reply: 0.0729

* * *

Test system: Escherichia coli TOP10
Assay: shrunken log2 fold change of peptide-encoding DNA abundance (4.5 h post-induction vs induction); higher = less antimicrobial activity (less host growth inhibition)
Conditions: time post-induction: 4.5 h; library: site-saturation at positions 5, 18, 19, 20
Would you please tag the item y when its shrunken log2 fold change is -0.01 or above, and n when it is below?

# count of solved cases: 3
ENTRY SEQUENCE	QUALITATIVE LABEL
RRIRGRPPRLPRPRPRPDRCPRP	y
RRIRSRPPRLPRPRPRPKRNPRP	y
RRIRNRPPRLPRPRPRPVYTPRP	n

Task item: For this sequence, is measured shrunken log2 fold change -0.01 or higher? `RRIRFRPPRLPRPRPRPAKSPRP`
Reply: n

Task item: Another sequence to look at: `RRIRARPPRLPRPRPRPNWVPRP`
Reply: n

Task item: Another sequence to look at: `RRIRMRPPRLPRPRPRPGVHPRP`
Reply: y

Task item: Another sequence to look at: `RRIRPRPPRLPRPRPRPHHEPRP`
Reply: n

Task item: Another sequence to look at: `RRIRFRPPRLPRPRPRPAFDPRP`
Reply: y

Task item: Another sequence to look at: `RRIRTRPPRLPRPRPRPAQEPRP`
Reply: y

* * *

System: Escherichia coli TOP10;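 note: peptides expressed intracellularly from a pBAD plasmid library in pooled LB shake-flask culture, induced with 0.3% L-arabinose, DNA abundance read by NGS, three biological replicates, DESeq2 with apeglm shrinkage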
Assay: shrunken log2 fold change of peptide-encoding DNA abundance (4.5 h post-induction vs induction); higher = less antimicrobial activity (less host growth inhibition)
Settings: time post-induction: 4.5 h; library: site-saturation at positions 5, 18, 19, 20
Readings of shrunken log2 fold change for the listed sequences
I only need the number, thanks.

ENTRY SEQUENCE	TEST TARGET	shrunken log2 fold change
RRIRYRPPRLPRPRPRPYPDPRP	Escherichia coli TOP10	-0.0152

Task item: Please report the recorded shrunken log2 fold change for `RRIRGRPPRLPRPRPRPWVEPRP` .
Reply: 0.129

Task item: Another sequence to look at: `RRIRDRPPRLPRPRPRPRPPPRP`
Reply: 0.935

Task item: Another sequence to look at: `RRIRYRPPRLPRPRPRPVARPRP`
Reply: -0.206

Task item: Another sequence to look at: `RRIRLRPPRLPRPRPRPTHVPRP`
Reply: 0.329

Task item: Another sequence to look at: `RRIRSRPPRLPRPRPRPMHSPRP`
Reply: -0.055

Task item: Another sequence to look at: `RRIRTRPPRLPRPRPRPFYPPRP`
Reply: -0.478

Source of measurements: the supplement of paper PMC9112550
